# target_or_system: Gsx2HD (Mus musculus, UniProt P31316 203-264)
# Sequence (P31316 203-264): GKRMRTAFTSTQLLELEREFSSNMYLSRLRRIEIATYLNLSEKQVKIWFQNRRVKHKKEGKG
# procedure_details: ITC
measured_attribute: pKd
Numbers only, as −log10 of the molar value.

Can you look up the measured pKd of TAATGG (common Q50) monomer site 15mer (dsDNA) DNA 1: TGAGCTAATGGAAGC DNA 2: AGCTTCCATTAGCTC for me?
7.44
